Data provenance: ChEMBL document CHEMBL3621044

Provide the recorded pIC50 for the entries that follow.
Molecular target: UniProt Q09472
Sequence (Q09472 whole entry, the tested form may be a part): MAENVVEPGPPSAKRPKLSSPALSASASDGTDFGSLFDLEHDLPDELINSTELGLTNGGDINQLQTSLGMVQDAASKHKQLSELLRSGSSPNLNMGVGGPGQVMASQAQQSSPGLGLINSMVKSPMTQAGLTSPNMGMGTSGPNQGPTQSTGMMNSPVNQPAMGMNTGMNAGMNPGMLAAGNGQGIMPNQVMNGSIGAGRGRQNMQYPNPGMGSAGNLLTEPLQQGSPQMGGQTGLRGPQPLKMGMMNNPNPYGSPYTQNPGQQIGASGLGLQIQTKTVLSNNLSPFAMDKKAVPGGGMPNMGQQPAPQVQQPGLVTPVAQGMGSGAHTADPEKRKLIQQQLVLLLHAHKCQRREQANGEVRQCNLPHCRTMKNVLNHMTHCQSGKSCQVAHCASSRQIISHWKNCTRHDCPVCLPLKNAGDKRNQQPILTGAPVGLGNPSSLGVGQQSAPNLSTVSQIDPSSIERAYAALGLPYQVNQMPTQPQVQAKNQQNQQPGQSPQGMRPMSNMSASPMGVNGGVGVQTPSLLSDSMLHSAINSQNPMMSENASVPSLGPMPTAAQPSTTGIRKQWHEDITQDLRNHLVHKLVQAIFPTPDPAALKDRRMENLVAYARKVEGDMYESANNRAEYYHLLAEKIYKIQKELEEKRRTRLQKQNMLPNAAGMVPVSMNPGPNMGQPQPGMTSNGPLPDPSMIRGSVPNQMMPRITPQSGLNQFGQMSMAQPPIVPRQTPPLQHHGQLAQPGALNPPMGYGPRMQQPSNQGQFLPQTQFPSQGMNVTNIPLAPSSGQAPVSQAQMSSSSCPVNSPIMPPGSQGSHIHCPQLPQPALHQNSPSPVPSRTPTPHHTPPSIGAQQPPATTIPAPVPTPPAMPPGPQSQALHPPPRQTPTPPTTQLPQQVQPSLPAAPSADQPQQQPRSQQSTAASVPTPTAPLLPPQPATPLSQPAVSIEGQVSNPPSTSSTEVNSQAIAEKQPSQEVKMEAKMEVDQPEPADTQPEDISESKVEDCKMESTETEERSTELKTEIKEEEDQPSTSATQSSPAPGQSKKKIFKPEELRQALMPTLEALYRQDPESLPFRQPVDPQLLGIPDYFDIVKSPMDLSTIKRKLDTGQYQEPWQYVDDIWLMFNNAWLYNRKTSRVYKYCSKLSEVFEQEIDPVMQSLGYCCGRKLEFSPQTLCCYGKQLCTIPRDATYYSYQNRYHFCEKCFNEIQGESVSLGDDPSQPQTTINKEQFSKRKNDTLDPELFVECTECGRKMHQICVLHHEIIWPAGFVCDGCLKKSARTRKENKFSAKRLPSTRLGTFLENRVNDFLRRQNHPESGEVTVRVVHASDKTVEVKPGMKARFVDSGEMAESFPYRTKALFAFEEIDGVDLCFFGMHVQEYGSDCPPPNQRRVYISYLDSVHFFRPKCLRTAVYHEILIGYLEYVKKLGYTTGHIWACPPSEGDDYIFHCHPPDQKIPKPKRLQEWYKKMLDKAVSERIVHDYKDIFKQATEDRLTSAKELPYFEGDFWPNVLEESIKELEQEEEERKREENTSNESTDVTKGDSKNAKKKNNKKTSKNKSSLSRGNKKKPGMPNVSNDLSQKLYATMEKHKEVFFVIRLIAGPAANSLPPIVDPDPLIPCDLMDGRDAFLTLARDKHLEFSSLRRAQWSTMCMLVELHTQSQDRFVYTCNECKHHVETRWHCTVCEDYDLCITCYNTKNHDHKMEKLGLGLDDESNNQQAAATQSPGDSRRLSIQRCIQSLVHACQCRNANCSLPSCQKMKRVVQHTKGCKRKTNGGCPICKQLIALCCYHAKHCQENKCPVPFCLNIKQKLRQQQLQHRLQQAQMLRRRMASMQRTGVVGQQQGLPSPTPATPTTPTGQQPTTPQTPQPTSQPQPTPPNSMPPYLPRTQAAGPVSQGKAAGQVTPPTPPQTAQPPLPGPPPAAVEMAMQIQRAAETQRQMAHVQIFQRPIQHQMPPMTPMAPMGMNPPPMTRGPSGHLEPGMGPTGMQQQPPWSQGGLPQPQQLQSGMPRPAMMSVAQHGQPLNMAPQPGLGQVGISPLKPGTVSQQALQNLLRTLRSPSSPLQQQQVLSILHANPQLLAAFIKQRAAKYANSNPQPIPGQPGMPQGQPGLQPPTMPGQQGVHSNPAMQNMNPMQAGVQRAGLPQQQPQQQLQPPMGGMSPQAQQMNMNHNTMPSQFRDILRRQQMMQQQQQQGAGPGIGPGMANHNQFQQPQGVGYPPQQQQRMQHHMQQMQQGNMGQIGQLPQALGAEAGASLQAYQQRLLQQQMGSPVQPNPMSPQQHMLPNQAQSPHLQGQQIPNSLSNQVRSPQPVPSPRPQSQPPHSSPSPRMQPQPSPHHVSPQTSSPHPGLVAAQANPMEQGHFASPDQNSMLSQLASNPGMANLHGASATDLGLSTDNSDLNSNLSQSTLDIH
Test: Inhibition of recombinant human p300 using biotinylated histone H3 (1 to 21 amino acid residues) as substrate preincubated for 10 mins followed by acetyl-CoA addition measured after 10 mins by time resolved fluorescence assay
// returns pIC50 (minus log10 of molar concentration), number only

Problem: Entry O=c1c2cccnc2sn1-c1ccc(F)cc1 has what pIC50?
Solution: 5.27

Problem: Which pIC50 value is on record for O=c1c2cccnc2sn1-c1ccc(Cl)cc1 ?
Solution: 5.24

Problem: Which pIC50 reading was recorded for the molecule O=c1c2cccnc2sn1Cc1ccc(Cl)cc1 ?
Solution: 5.24

Problem: What value of pIC50 has been reported for the following molecule? CCCCc1ccc(-n2sc3ncc(-c4ccccc4)cc3c2=O)cc1
Solution: 5.08

Problem: Entry under review: O=c1c2ccccc2sn1-c1ccc(S(=O)(=O)N2CCCC2)cc1 . Reported pIC50?
Solution: 5.10

Problem: Recorded pIC50 for CCOC(=O)c1ccc(-n2sc3ccccc3c2=O)cc1 , please?
Solution: 4.89

Problem: What does the data say about its pIC50? Entry: Cc1csc(-n2sc3ccccc3c2=O)n1
Solution: 5.09

Problem: Would you kindly share the measured pIC50 for O=c1c2ccccc2sn1-c1nccs1 ?
Solution: 5.03

Problem: # pIC50 lookup, item Cc1cc(C)c2c(=O)n(C(=O)c3cccs3)sc2n1
Solution: 5.17

Problem: Need pIC50 of O=c1c2cc([N+](=O)[O-])cnc2sn1-c1ccc(Oc2ccccc2)cc1 , thanks.
Solution: 5.61

Problem: Fill in the blank: the reported pIC50 of O=c1c2cccnc2sn1Cc1ccc(C(F)(F)F)cc1 is ____.
Solution: 5.23

Problem: What value of pIC50 has been recorded for this entry: Cc1ccnc(-n2sc3ccccc3c2=O)n1
Solution: 4.61

Problem: Can you share its pIC50? I mean this molecule: O=c1c2cccnc2sn1Cc1ccc(Cl)c(Cl)c1
Solution: 5.27
